biological target: cathepsin D isolated from the human liver (Homo sapiens (Human)); experiment: In-vitro fluorescence assay for identification of cathepsin D inhibitors; conditions: human liver cathepsin D 1.4 nM, pH 5.5, substrate 5 μM; read-out: Cath D IC50
Sequence (P07339 65-161): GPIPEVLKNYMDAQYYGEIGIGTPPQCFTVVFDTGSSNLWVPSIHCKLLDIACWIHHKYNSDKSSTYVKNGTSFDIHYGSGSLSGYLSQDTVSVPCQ
Sequence (P07339 169-412): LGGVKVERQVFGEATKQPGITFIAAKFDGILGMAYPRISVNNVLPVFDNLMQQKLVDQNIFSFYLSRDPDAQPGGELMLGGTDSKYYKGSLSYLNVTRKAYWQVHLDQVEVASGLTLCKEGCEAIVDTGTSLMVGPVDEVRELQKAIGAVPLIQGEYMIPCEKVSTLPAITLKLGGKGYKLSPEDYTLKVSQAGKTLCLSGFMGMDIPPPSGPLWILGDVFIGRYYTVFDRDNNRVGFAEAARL
Property name: IC50 (µM)

// solved cases for IC50 follow
Compound	Measure unit	IC50
COc1ccc2c(c1)CC(N1Cc3ccc(Cl)cc3N=C1N)C2 (centres unmarked) [Compound A14]	µM	0.62
Nc1nc2cc(C(F)(F)F)ccc2c(=O)n1C1Cc2ccccc2C1 [Compound A27]	µM	3.3
NC1=Nc2cc(C(F)(F)F)ccc2CN1C1CCc2ccccc21 (centres unmarked) [Compound A13]	µM	2.5

[1] COc1cc2c(cc1OC)CC(N1Cc3ccc(Cl)cc3N=C1N)C2 [Compound A9]
[2] NC1=Nc2cc(C(=O)N3CCOCC3)ccc2CN1C1Cc2ccccc2C1 [Compound A25]
[3] COc1ccc2c(c1)CN(C(=O)c1ccc3c(c1)N=C(N)N(C1Cc4ccccc4C1)C3)C2 [Compound A22]
[4] COc1ccc2c(c1)C[C@@H](N1Cc3ccc(C(F)(F)F)cc3N=C1N)C2 (single isomer, unassigned) [Compound A18]
[5] NC1=Nc2cc(C(F)(F)F)ccc2CN1C1CCc2ccccc2C1 (centres unmarked) [Compound A20]
Please give the order of these compounds when sorted by IC50, largest value leading. I would appreciate it if you listed the labels in the requested order.
5, 2, 1, 4, 3
(5: 3.8 µM, 2: 2.5 µM, 1: 0.51 µM, 4: 0.27 µM, 3: 0.18 µM)
